The measurements presented in this section are drawn from ChEMBL document CHEMBL3797190.

Tested on: Mycobacterium avium
Assay: Antimycobacterial activity against Mycobacterium avium CNCTC My 330/88 after 14 days by microdilution method
Assay type: functional
Details: CNCTC My 330/88, 336 h
Overview of reported MIC99 across a group of molecules:

Some entries whose results are on file:
O=[N+]([O-])c1cc(CSc2nnc(-c3cccc(Cl)c3)s2)cc([N+](=O)[O-])c1 ... 8 µM
O=[N+]([O-])c1ccc(CSc2nnc(-c3ccccc3)s2)c([N+](=O)[O-])c1 ... 8 µM
CCCCCCCCCCCc1nnc(SCc2cc([N+](=O)[O-])cc([N+](=O)[O-])c2)o1 ... 4 µM
Cc1ccc(-c2nnc(SCc3cc([N+](=O)[O-])cc([N+](=O)[O-])c3)o2)cc1 ... 8 µM
O=[N+]([O-])c1ccc(CSc2nnc(-c3ccc([N+](=O)[O-])cc3)o2)cc1 ... 250 µM

Please turn your attention to the following entry.
stdin: Reported MIC99, molecule Cc1ccc(-c2nnc(SCc3cc([N+](=O)[O-])cc(C(F)(F)F)c3)o2)cc1 : ____
stdout: > 500 µM

====

Test system: Mycobacterium avium
Assay: Antimycobacterial activity against Mycobacterium avium CNCTC My 330/88 after 21 days by microdilution method
Format: functional
Settings: CNCTC My 330/88, 504 h
Measure: MIC99

Some entries whose results are on file:
Cc1cc(C)cc(-c2nnc(SCc3cc([N+](=O)[O-])cc([N+](=O)[O-])c3)o2)c1 ... > 32 µM
NNC(=O)c1ccncc1 ... > 250 µM

stdin: Reported MIC99, compound Nc1cc(CSc2nnc(-c3ccc([N+](=O)[O-])cc3)s2)cc([N+](=O)[O-])c1 : ____
stdout: 250 µM

stdin: Next entry: CCCCCCCCCCCc1nnc(SCc2cc([N+](=O)[O-])cc([N+](=O)[O-])c2)o1
stdout: 8 µM

====

Overview of reported viability at 48 h, 20 µM across a group of compounds:
Experiment: Cytotoxicity against human HuH7 cells assessed as cell viability at 20 uM after 48 hrs by MTS assay
Format: cell-based, Huh-7
Settings: read-out: Activity
Numeric answer only, unit % assumed.

Some entries whose results are on file:
Cc1ccc(-c2nnc(SCc3cc([N+](=O)[O-])cc([N+](=O)[O-])c3)o2)cc1 ... 53.1
O=[N+]([O-])c1cc(CSc2nnc(-c3ccc(Cl)cc3)s2)cc([N+](=O)[O-])c1 ... 43.4

Please turn your attention to the following entry.
stdin: Reported viability at 48 h, 20 µM, compound O=[N+]([O-])c1cc(CSc2nnc(-c3ccccc3)s2)cc([N+](=O)[O-])c1 : ____
stdout: 36.3

====

System: Mycobacterium kansasii
Test: Antimycobacterial activity against Mycobacterium kansasii CNCTC My 235/80 after 7 days by microdilution method
Format: functional
Conditions: CNCTC My 235/80, 168 h
Overview of reported MIC99 across a group of compounds:

O=[N+]([O-])c1cc(CSc2nnc(-c3ccc(Cl)cc3)o2)cc(C(F)(F)F)c1 ... > 32 µM

Please turn your attention to the following entry.
stdin: Reported MIC99, compound Cc1ccc(-c2nnc(SCc3cc([N+](=O)[O-])cc(C(F)(F)F)c3)o2)cc1 : ____
stdout: > 32 µM

====

Experiment: Cytotoxicity against MDCK2-MDR1 cells assessed as cell viability after 48 hrs by MTS assay
Type: ADME, cell-based
Conditions: Canis lupus familiaris, MDCK-II
pIC50: −log10 of the molar value.
Measure: pIC50

Some entries whose results are on file:
O=[N+]([O-])c1cc(CSc2nnc(-c3cccc(Cl)c3)o2)cc([N+](=O)[O-])c1 ... < 4.70
COc1ccc(-c2nnc(SCc3ccc([N+](=O)[O-])cc3[N+](=O)[O-])o2)cc1 ... < 4.70

stdin: Reported pIC50, molecule O=[N+]([O-])c1ccc(CSc2nnc(-c3ccccc3)o2)c([N+](=O)[O-])c1 : ____
stdout: < 4.70
